Molecular target: T1, SCAF4-CID (human, UniProt O95104 1-139)
T1 sequence: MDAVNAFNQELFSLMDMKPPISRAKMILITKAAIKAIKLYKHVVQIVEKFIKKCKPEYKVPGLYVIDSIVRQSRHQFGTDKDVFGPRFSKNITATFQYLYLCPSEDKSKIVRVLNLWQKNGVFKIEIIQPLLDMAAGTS
Experiment: SPR
pKd: −log10 of the molar value.
// label = YES if pKd is not less than 7, otherwise NO

Lookup: Answer whether pKd of AGGTGGGT (ssDNA) [B2_8-nt] is greater than or equal to 7.
Found: NO

Lookup: Say whether GGGGTGGGGAG (ssDNA) [SRiApt-1 (F3_11-nt)] shows pKd of 7 or more.
Found: YES

Lookup: Entry TTAAAGGGGTGGGGAGTCAT (ssDNA) [SRiApt-3] : is its pKd no less than 7?
Found: YES
